Assign Kd to each entry below.
- test.system: T1, human IL-18BP (human, UniProt O95998 31-194)
- T1 construct: UniProt printed as 095998; also called hIL-18BP
- T1 sequence: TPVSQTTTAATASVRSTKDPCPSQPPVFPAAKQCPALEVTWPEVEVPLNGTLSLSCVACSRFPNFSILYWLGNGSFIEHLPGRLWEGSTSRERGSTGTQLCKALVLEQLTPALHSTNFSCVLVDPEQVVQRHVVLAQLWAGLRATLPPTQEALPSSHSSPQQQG
- test.summary: BLI, apparent KD
One number for each entry, in nM.

{"binder": "SA301a HC-T57S (antibody, name in Kabat numbering, V domains shown, IgG1 kappa) VH: QVQLQESGPGLVKPSQTLSLTCTVSGYSITSDYNSHWIRQPPGKGLEWIGYIHYSGSSNYNPSLKSRVTISRDTSKNQFSLKLSSVTAADTAVYYCARNYGSIYVNYFDYWGQGTLVTVSS VL: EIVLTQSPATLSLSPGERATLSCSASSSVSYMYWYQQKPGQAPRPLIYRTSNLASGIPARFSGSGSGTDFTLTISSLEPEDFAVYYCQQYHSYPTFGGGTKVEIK", "Kd, nM": 0.37}
{"binder": "SA301a HC-T57M (antibody, name in Kabat numbering, V domains shown, IgG1 kappa) VH: QVQLQESGPGLVKPSQTLSLTCTVSGYSITSDYNSHWIRQPPGKGLEWIGYIHYSGSMNYNPSLKSRVTISRDTSKNQFSLKLSSVTAADTAVYYCARNYGSIYVNYFDYWGQGTLVTVSS VL: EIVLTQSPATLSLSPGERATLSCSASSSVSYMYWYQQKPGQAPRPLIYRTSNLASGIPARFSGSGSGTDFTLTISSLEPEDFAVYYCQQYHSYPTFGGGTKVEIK", "Kd, nM": 0.18}

// field: Kd; key: SA301a HC-Y59A (antibody, name in Kabat numbering, V domains shown, IgG1 kappa) VH: QVQLQESGPGLVKPSQTLSLTCTVSGYSITSDYNSHWIRQPPGKGLEWIGYIHYSGSTNANPSLKSRVTISRDTSKNQFSLKLSSVTAADTAVYYCARNYGSIYVNYFDYWGQGTLVTVSS VL: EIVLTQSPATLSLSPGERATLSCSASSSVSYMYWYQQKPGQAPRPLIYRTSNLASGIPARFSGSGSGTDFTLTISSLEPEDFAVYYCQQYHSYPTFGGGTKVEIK ; value = 0.35

Where these numbers come from: patent US20250368745A1
